So I've got a bunch of variants here, and I need their protein stability index values.
B1: ELF3 (parent)
chain: LSKEYWDCLEGKKSKHAPRGTHLW

- Variants of: B1
- TEST: protein stability index of a GFP-peptide fusion (GPS, HEK-293T) (PSI 1-6); higher = more stable;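 note: lentivirally expressed fusions sorted by FACS into six bins by GFP to DsRed ratio, PSI derived from sequencing read proportions per bin multiplied by bin number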
- STATED CONDITIONS: c terminus: a fixed tail appended
When you answer, write just the number.

Please report the measured protein stability index for S14P
2.94

Please give the documented protein stability index of S14V
2.94

Return reported protein stability index. Input variant: R19N
2.83

For the variant P18T , give its reported protein stability index.
3.16

Using known records, supply protein stability index for L23K
3.29

Answer with the recorded protein stability index of W24H only.
3.98

State its protein stability index: H22L
2.12

For the variant G20R , report protein stability index.
2.64

Complete the entry with protein stability index for P18L
2.43

Give the value of protein stability index reported for the following: G20N
2.74

For the variant K13C , give its measured protein stability index value.
2.24

Return value of protein stability index for input K13D , no commentary.
3.24

For the variant C8S , report protein stability index.
3.33

Quickly give me recorded protein stability index for L23R
3.25

Find the measured protein stability index of K12S and report it.
3.38

Give protein stability index for the following variant: K13V
2.32

State, in one line, measured protein stability index of A17V
3.02

Consider the variant T21Q . State its measured protein stability index.
2.78

Please indicate protein stability index recorded for R19P
2.64

Return reported protein stability index. Input variant: L1N
2.63

Return value of protein stability index for input K15R , no commentary.
3.44

Give reported protein stability index value for H22Y
2.51
